Ref: ChEMBL document CHEMBL1157907

tested on: HeLa; assay: Cytotoxicity against human HeLa cells after 48 hrs by MTT assay; assay type: functional, cell-based
Quick rule for you: EC50 under 30 µM gets true, anything else gets false.

# count of solved cases: 2
>  <item-smiles>
CO[C@H]1O[C@H](COc2ccc3c(c2)CCCC3)[C@@H](O)[C@H](O)[C@H]1Oc1cccc(C(C)C)c1

>  <group-label>
false

$$$$
>  <item-smiles>
CO[C@H]1O[C@H](COc2ccc(C3CCCCC3)cc2)[C@@H](O)[C@H](O)[C@H]1Oc1ccc(OC2CCCCC2)cc1

>  <group-label>
true

$$$$

Determine if `CO[C@@H]1O[C@H](COc2ccccc2C(C)C)[C@@H](O)[C@H](O)[C@H]1Oc1ccc(OC2CCCCC2)cc1` shows EC50 strictly lower than 30 µM. false

Determine if `CO[C@H]1O[C@H](COc2ccc(-c3ccccc3)cc2)[C@@H](O)[C@H](O)[C@H]1Oc1cccc(C(C)C)c1` shows EC50 strictly lower than 30 µM. false

Determine if `CO[C@H]1O[C@H](COc2ccc(-c3ccccc3)cc2)[C@@H](O)[C@H](O)[C@H]1Oc1ccccc1C(C)C` shows EC50 strictly lower than 30 µM. true

Determine if `CO[C@@H]1O[C@H](COc2ccc(-c3ccccc3)cc2)[C@@H](O)[C@H](O)[C@H]1Oc1cccc(C(C)C)c1` shows EC50 strictly lower than 30 µM. false

Determine if `CO[C@H]1O[C@H](COc2ccc(OC3CCCCC3)cc2)[C@@H](O)[C@H](O)[C@H]1Oc1ccc(C(C)C)cc1` shows EC50 strictly lower than 30 µM. true

Determine if `CO[C@@H]1O[C@H](COc2cccc(C(C)C)c2)[C@@H](O)[C@H](O)[C@H]1Oc1ccc(OC2CCCCC2)cc1` shows EC50 strictly lower than 30 µM. false

Determine if `CO[C@H]1O[C@H](COc2ccc(C3CCCCC3)cc2)[C@@H](O)[C@H](O)[C@H]1Oc1cccc2c1CCCC2` shows EC50 strictly lower than 30 µM. true

Determine if `CO[C@H]1O[C@H](COc2ccc(OC3CCCCC3)cc2)[C@@H](O)[C@H](O)[C@H]1Oc1ccc(OC2CCCCC2)cc1` shows EC50 strictly lower than 30 µM. true

Determine if `CO[C@@H]1O[C@H](COc2ccc(OC3CCCCC3)cc2)[C@@H](O)[C@H](O)[C@H]1Oc1ccc(OC2CCCCC2)cc1` shows EC50 strictly lower than 30 µM. true

Determine if `CO[C@H]1O[C@H](COc2cccc(C(C)C)c2)[C@@H](O)[C@H](O)[C@H]1Oc1ccc(OC2CCCCC2)cc1` shows EC50 strictly lower than 30 µM. true

Determine if `CO[C@H]1O[C@H](COc2ccc(C3CCCCC3)cc2)[C@@H](O)[C@H](O)[C@H]1Oc1ccc2c(c1)CCCC2` shows EC50 strictly lower than 30 µM. true

Determine if `CO[C@H]1O[C@H](COc2ccccc2C(C)C)[C@@H](O)[C@H](O)[C@H]1Oc1ccc(OC2CCCCC2)cc1` shows EC50 strictly lower than 30 µM. false

###

system: A549; assay: Cytotoxicity against human A549 cells up to 50 uM after 48 hrs by MTT assay; format: functional, cell-based
quantity-kind: EC50

Recorded results for 4 compounds are shown here.
>  <item-smiles>
C=CCO[C@@H]1[C@@H](Oc2ccc(OC3CCCCC3)cc2)[C@@H](OC)O[C@H](COc2ccc(C3CCCCC3)cc2)[C@H]1OCC=C

>  <tested-on>
A549

>  <quantity-kind>
EC50

>  <result>
Not Active

$$$$
>  <item-smiles>
COc1ccc(OC[C@H]2O[C@H](OC)[C@H](Oc3ccc(OC4CCCCC4)cc3)[C@@H](O)[C@@H]2O)cc1OC

>  <tested-on>
A549

>  <quantity-kind>
EC50

>  <result>
Not Active

$$$$
>  <item-smiles>
CO[C@@H]1O[C@H](COc2ccc3c(c2)CCCC3)[C@@H](O)[C@H](O)[C@H]1Oc1cccc(C(C)C)c1

>  <tested-on>
A549

>  <quantity-kind>
EC50

>  <result>
Not Active

$$$$
>  <item-smiles>
COc1cc(OC)cc(OC[C@H]2O[C@H](OC)[C@H](Oc3ccc(OC4CCCCC4)cc3)[C@@H](O)[C@@H]2O)c1

>  <tested-on>
A549

>  <quantity-kind>
EC50

>  <result>
Not Active

$$$$

# EC50 lookup, item `CO[C@H]1O[C@H](COc2ccc(C3CCCCC3)cc2)[C@@H](OCc2ccccc2)[C@H](OCc2ccccc2)[C@H]1Oc1ccc(OC2CCCCC2)cc1` Not Active

# EC50 lookup, item `CO[C@H]1O[C@H](COc2ccc(C3CCCCC3)cc2)[C@@H](OC)[C@H](OC)[C@H]1Oc1ccc(OC2CCCCC2)cc1` Not Active

# EC50 lookup, item `CO[C@H]1O[C@H](COc2ccc(-c3ccccc3)cc2)[C@@H](O)[C@H](O)[C@H]1Oc1ccccc1` Not Active

# EC50 lookup, item `CO[C@H]1O[C@H](COc2ccc3c(c2)CCCC3)[C@@H](O)[C@H](O)[C@H]1Oc1cccc(C(C)C)c1` Not Active

# EC50 lookup, item `COc1ccc(OC[C@H]2O[C@@H](OC)[C@H](Oc3ccc(OC4CCCCC4)cc3)[C@@H](O)[C@@H]2O)cc1OC` Not Active

###

test system: MDA-MB-231; assay: Cytotoxicity against human MDA-MB-231 cells at 20 uM after 48 hrs by MTT assay; type: functional; conditions: MDA-MB-231, 48 h
Examples of molecules with documented inhibition at 20 µM follow.
Write the number in % without appending the unit.

>  <item-smiles>
CO[C@H]1O[C@H](COc2cccc3c2CCCC3)[C@@H](O)[C@H](O)[C@H]1Oc1ccc2c(c1)-c1ccccc1S2(=O)=O

>  <inhibition at 20 µM [%]>
-8

$$$$
>  <item-smiles>
CO[C@H]1O[C@H](COc2ccccc2)[C@@H](O)[C@H](O)[C@H]1Oc1ccc2c(c1)-c1ccccc1S2(=O)=O

>  <inhibition at 20 µM [%]>
2

$$$$
>  <item-smiles>
CO[C@H]1O[C@H](COc2ccc3c(c2)CCCC3)[C@@H](O)[C@H](O)[C@H]1Oc1ccc(OC2CCCCC2)cc1

>  <inhibition at 20 µM [%]>
24

$$$$
>  <item-smiles>
CO[C@@H]1O[C@H](COc2ccccc2)[C@@H](O)[C@H](O)[C@H]1Oc1ccc(OC2CCCCC2)cc1

>  <inhibition at 20 µM [%]>
-9

$$$$
>  <item-smiles>
CO[C@H]1O[C@H](COc2ccc(-c3ccccc3)cc2)[C@@H](O)[C@H](O)[C@H]1Oc1ccc2c(c1)-c1ccccc1S2(=O)=O

>  <inhibition at 20 µM [%]>
29

$$$$
>  <item-smiles>
CO[C@H]1O[C@H](COc2cccc3c2CCCC3)[C@@H](O)[C@H](O)[C@H]1Oc1ccc(OC2CCCCC2)cc1

>  <inhibition at 20 µM [%]>
-8

$$$$

Turning to the following molecule.
# inhibition at 20 µM lookup, item `CO[C@@H]1O[C@H](COc2ccc(-c3ccccc3)cc2)[C@@H](O)[C@H](O)[C@H]1Oc1ccc(OC2CCCCC2)cc1` 64

###

test system: MCF7; test: Cytotoxicity against human MCF7 cells at 20 uM after 48 hrs by MTT assay; assay type: functional; settings: MCF7, 48 h
Examples of compounds with documented inhibition at 20 µM follow.
Note to self: number, then unit, no commentary.

>  <item-smiles>
CO[C@@H]1O[C@H](COc2ccc(-c3ccccc3)cc2)[C@@H](O)[C@H](O)[C@H]1Oc1ccc(OC2CCCCC2)cc1

>  <inhibition at 20 µM>
51%

$$$$
>  <item-smiles>
CO[C@H]1O[C@H](COc2ccc(-c3ccccc3)cc2)[C@@H](O)[C@H](O)[C@H]1Oc1ccc2c(c1)-c1ccccc1S2(=O)=O

>  <inhibition at 20 µM>
15%

$$$$
>  <item-smiles>
CO[C@H]1O[C@H](COc2cccc3c2CCCC3)[C@@H](O)[C@H](O)[C@H]1Oc1ccc(OC2CCCCC2)cc1

>  <inhibition at 20 µM>
3%

$$$$
>  <item-smiles>
CO[C@H]1O[C@H](COc2ccc3c(c2)CCCC3)[C@@H](O)[C@H](O)[C@H]1Oc1ccc(OC2CCCCC2)cc1

>  <inhibition at 20 µM>
45%

$$$$
>  <item-smiles>
CO[C@@H]1O[C@H](COc2ccc3c(c2)CCCC3)[C@@H](O)[C@H](O)[C@H]1Oc1ccc(OC2CCCCC2)cc1

>  <inhibition at 20 µM>
14%

$$$$

# inhibition at 20 µM lookup, item `CO[C@H]1O[C@H](COc2cccc3c2CCCC3)[C@@H](O)[C@H](O)[C@H]1Oc1ccc2c(c1)-c1ccccc1S2(=O)=O` 4%

# inhibition at 20 µM lookup, item `CO[C@@H]1O[C@H](COc2ccc3c(c2)CCCC3)[C@@H](O)[C@H](O)[C@H]1Oc1ccc2c(c1)-c1ccccc1S2(=O)=O` 7%
